# assay system: C-CBL (residues 46-435) (Homo sapiens, UniProt P22681)
# Construct: Purified CBL-B (residues 36-427) and C-CBL (residues 46-435) proteins from baculovirus-infected insect cells; made in house; host or cells: baculovirus-infected insect cells
# measurement protocol: Ligand Displacement Assay (LDA), HTRF competitive binding against BODIPY-labeled fluorescent tracer, C-CBL
# setup conditions: geometric mean of the number of tests, read-out: C-CBL Ki (nM) GMean
# Source text: Ligand Displacement Assay (LDA) […]
Bucketed by reported Ki, buckets being low value: < 90 nM; medium value: ≥ 90 nM and < 200 nM; high value: ≥ 200 nM

Class? Entry: Cn1cnnc1CC1(c2cccc(-c3n[nH]c4ccc(F)cc34)c2)COC1 [Example B6]
high value

// same read-out, input: CC(N[C@H]1CCC[C@@H]1O)c1nc(C(F)(F)F)cc2c(-c3cccc([C@H](c4nncn4C)C4CCCCC4)c3)n[nH]c12 (single isomer, unassigned) [Example C101]
low value

// same read-out, input: C[C@@H](N)c1nc(C(F)(F)F)cc2c(-c3cccc([C@H](c4nncn4C)C4CCCCC4)c3)n[nH]c12 [Example K1]
high value

// same read-out, input: CN(C)c1nc2[nH]nc(-c3cccc([C@H](c4nncn4C)C4CCC4)c3)c2cc1C(F)(F)F [Example E1]
high value

// same read-out, input: Cn1cnnc1CC1(c2cccc(-c3n[nH]c4cnc(OC(F)(F)F)cc34)c2)COC1 [Example B9]
high value

// same read-out, input: C[C@@H]1CN(Cc2nc(C(F)(F)F)cc3c(-c4cccc(C5(Cc6nncn6C)COC5)c4)n[nH]c23)CCO1 [Example C72]
low value

// same read-out, input: Cn1cnnc1CC1(c2cccc(-c3n[nH]c4ncc(C(F)(F)F)cc34)c2)COC1 [Example B3]
high value

// same read-out, input: CC(CN)c1nc(C(F)(F)F)cc2c(-c3cccc([C@H](c4nncn4C)C4CCC4)c3)n[nH]c12 (single isomer, unassigned) [Example K15]
high value

// same read-out, input: CC(O)c1nc(C2CC2)cc2c(-c3cccc(C4(Cc5nncn5C)COC4)c3)n[nH]c12 (single isomer, unassigned) [Example H5]
medium value

// same read-out, input: C[C@@H](N)c1nc(C(F)(F)F)cc2c(-c3cccc([C@H](c4nncn4C)C4CCC4)c3)n[nH]c12 [Example K13]
high value

// same read-out, input: CCC(CC)(CO)N[C@H](C)c1nc(C(F)(F)F)cc2c(-c3cccc([C@H](c4nncn4C)C4CCC4)c3)n[nH]c12 (single isomer, unassigned) [Example D75]
medium value

// same read-out, input: Cn1cnnc1CC1(c2cccc(-c3n[nH]c4c(CNC5CC(F)(F)C5)nc(C(F)(F)F)cc34)c2)COC1 [Example C78]
high value

// same read-out, input: C[C@H](c1nc(C(F)(F)F)cc2c(-c3cccc(C4(Cc5nncn5C)COC4)c3)n[nH]c12)N(C)C (single isomer, unassigned) [Example D40]
medium value

// same read-out, input: C[C@@H](N[C@H]1CCOC1)c1nc(C(F)(F)F)cc2c(-c3cccc([C@H](c4nncn4C)C4CCC4)c3)n[nH]c12 (single isomer, unassigned) [Example C3]
low value

// same read-out, input: Cn1cnnc1[C@@H](c1cccc(-c2n[nH]c3c(CN4CC[C@H](F)C4)nc(C(F)(F)F)cc23)c1)C1CCC1 [Example C110]
high value

// same read-out, input: Cn1cnnc1CC1(c2cccc(-c3n[nH]c4c(CN5C[C@@H](F)[C@@H](F)C5)nc(C(F)(F)F)cc34)c2)COC1 [Example C67]
low value

// same read-out, input: Cn1cnnc1[C@@H](c1cccc(-c2n[nH]c3c(CN4CCNCC4)nc(C(F)(F)F)cc23)c1)C1CCC1 [Example D84]
medium value

// same read-out, input: C[C@H](NC1CC[C@H]1O)c1nc(C(F)(F)F)cc2c(-c3cccc([C@H](c4nncn4C)C4CCC4)c3)n[nH]c12 (single isomer, unassigned) [Example D30]
low value

// same read-out, input: C[C@H](N[C@H]1CCOC1)c1nc(C(F)(F)F)cc2c(-c3cccc([C@H](c4nncn4C)C4CCC4)c3)n[nH]c12 (single isomer, unassigned) [Example C2]
low value

// same read-out, input: C[C@H](N[C@H]1C[C@@H](F)C1)c1nc(C(F)(F)F)cc2c(-c3cccc([C@H](c4nncn4C)C4CCC4)c3)n[nH]c12 (single isomer, unassigned) [Example C95]
low value

// same read-out, input: C[C@@H](c1nc(C(F)(F)F)cc2c(-c3cccc(C4(Cc5nncn5C)COC4)c3)n[nH]c12)N1CC[C@H](F)C1 (single isomer, unassigned) [Example D98]
medium value

// same read-out, input: CCC(CC)(CO)N[C@@H](C)c1nc(C(F)(F)F)cc2c(-c3cccc([C@H](c4nncn4C)C4CCC4)c3)n[nH]c12 (single isomer, unassigned) [Example D74]
high value

// same read-out, input: C[C@H](c1nc(C(F)(F)F)cc2c(-c3cccc(C4(Cc5nncn5C)COC4)c3)n[nH]c12)N1C[C@H](F)[C@@H](F)C1 (single isomer, unassigned) [Example D8]
medium value
